- assayed target: Golgi-associated PDZ and coiled-coil motif-containing protein (Homo sapiens)
- protocol summary: untagged CAL PDZ binding inhibitors, primary screen, biochemical, fluorescence polarization, HTS (AID 602252);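 further: 0% = DMSO neutral control and 100% = excess unlabeled competitor peptide PRC23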
- reported conditions: purified CAL PDZ, TMR-peptide fluorescence polarization, 1 h; at 24.9 µM; stronger effect = higher value
Out of some 300,000 compounds screened, about 2,700 (0.9%) were called active. The entries come from a sample that favours actives as a whole.
reported endpoint: inhibition (%)
Answers are plain numbers, in %.

Reference set (5 entries):
Cc1ccc(C(=O)Nc2ccccc2-c2ccccc2)cc1S(=O)(=O)Nc1ccccc1 ... -1.73
Cc1sc2ncnc(N3CCC(C(=O)Nc4ccc(F)cc4Cl)CC3)c2c1C ... -2.24
COc1cc(C(=O)OCc2cc(=O)n3ccsc3n2)ccc1OC(C)C ... -4.78
CCN(CC)S(=O)(=O)c1ccc(N2CCOCC2)c(NC(=O)C(C)Oc2ccc(F)cc2)c1 (configuration not stated) ... -9.92
CN(C(=O)c1cccc(NC(=O)C2CCN(C(=O)OC(C)(C)C)CC2)c1)C1CCC1 ... -3.04

Respectfully, I request inhibition for each entry included below.
1. CCc1nnc(NC(=O)c2cc(S(=O)(=O)N3CCCCC3)ccc2C)s1
2. COCc1nnc(NC(=O)CS(=O)(=O)Cc2ccccc2)s1
3. COc1cccc2oc(CCc3ccccc3)cc(=O)c12
4. O=C(c1cc(S(=O)(=O)N2CCOCC2)ccc1Cl)N1CCOCC1
5. COc1cccc2c1C(=O)c1c(O)c3c(c(O)c1C2=O)CC(O)(C(C)=NNC(=O)c1ccc(Cl)c(Cl)c1)CC3OC1CC(N)C(O)C(C)O1 (configuration not stated)
6. O=C(/C=C/c1c(F)cccc1Cl)Nc1nn[nH]n1

Resp:
1. 77.7
2. -3.64
3. -0.506
4. -1.76
5. -11.4
6. 133

Respectfully, I request inhibition for each entry included below.
1. O=C(CCc1ccccc1)Nc1nn[nH]n1
2. COc1ccc2oc(N)nc2c1
3. CCOC(=O)CNC(=O)/C=C/c1c(Cl)cccc1Cl
4. Cc1ccccc1NC(=O)NC1(C(=O)N2CCCC2)CCCCC1
5. Cc1ccc(CS(=O)Cc2ccc(C(=O)N3CCOCC3)o2)cc1 (configuration not stated)
6. COc1cc(OC)cc(-c2c(C#Cc3ccsc3)c3cc(-c4ccc(OC)cc4F)ccc3n2C)c1

Resp:
1: -4.68; 2: -0.189; 3: -4.11; 4: -0.684; 5: 61.7; 6: 2.79

Respectfully, I request inhibition for each entry included below.
1. O=C(O)c1ccc(S(=O)(=O)N2CCOCC2)o1
2. CC/C(=C(/c1ccccc1)c1ccc(OCC[N+](C)(C)C)cc1)c1ccccc1
3. CCOC(=O)CSc1nnc(NC(=O)c2cccc(S(=O)(=O)N3CCCCC3)c2)s1
4. CN1C(c2ccc(F)cc2)=CS/C1=C(/C#N)c1nnc2n1-c1ccccc1SC2

Resp:
1. 32.5
2. 5.44
3. -0.488
4. 7.66

Req: Which inhibition is reported for this compound? CCOC(=O)c1c(NC(=S)NC)sc2c1CCCC2
Resp: 2.4

###

- assayed target: Golgi-associated PDZ and coiled-coil motif-containing protein (Homo sapiens) (UniProt Q9HD26)
- protocol summary: untagged CAL PDZ binding inhibitors, primary screen, biochemical, fluorescence polarization, HTS (AID 602252);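 further: 0% = DMSO neutral control and 100% = excess unlabeled competitor peptide PRC23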
- reported conditions: purified CAL PDZ, TMR-peptide fluorescence polarization, 1 h; at 24.9 µM; stronger effect = higher value
Hit rate of the full screen: of about 300,000 compounds, about 2,700 (0.9%) were called active. What follows is part of a selection rich in actives, with near analogues and random picks from the rest.
Give measured inhibition for each item. Keep answers brief.
Numbers only, in %.

Reference set (8 entries):
CCOC(=O)c1c(-c2cccc(C)c2)csc1NC(=O)c1c(-c2ccccc2)noc1C ... -0.763
Cc1ccc(C(=O)N2CCCC(c3ccccc3)=N2)cc1 ... 4.38
COc1ccc2c(c1)[C@H]1[C@H](CO2)[C@H](c2ccccc2)[C@]2(C)C(=O)Nc3cc(F)c(F)cc3C(=O)N12 ... -3.04
O=C(CCC(=O)N1CCN(S(=O)(=O)c2ccc(Cl)cc2)CC1)NCc1cccc(C(F)(F)F)c1 ... -4.29
O=C1CC2(CCCC2)C(=O)N1CN1CCN(S(=O)(=O)c2ccc(F)cc2F)CC1 ... -4.29
Cc1c(NC(=O)Nc2ccccc2)cccc1[N+](=O)[O-] ... -0.291
OC(CNCc1ccc2c(c1)OCO2)COc1ccccc1 (stereo not drawn) ... -0.826
CNN/C(N=Cc1ccc([N+](=O)[O-])s1)=N\S(=O)(=O)c1cc(C)c(Cl)cc1SCc1ccccc1 ... 66.8

Respectfully, I request inhibition for each entry included below.
1. O=C(COC(=O)COc1cccc(F)c1)NCC1CCCCC1
2. Cc1cc(C)c(C#N)c(N2CCC(C(N)=O)CC2)n1
3. Cc1c(NC(=O)CCCOc2ccccc2)cccc1[N+](=O)[O-]
4. O=C(Nc1nnc(SCc2ccccc2Cl)s1)c1cccc([N+](=O)[O-])c1
5. O=S(=O)(Nc1ccc2ccccc2c1)N1CCCCC1

Resp:
1: -0.678; 2: 47.5; 3: 47.4; 4: -3.54; 5: -5.99

###

- assayed target: Golgi-associated PDZ and coiled-coil motif-containing protein (Homo sapiens)
- protocol summary: untagged CAL PDZ binding inhibitors, primary screen, biochemical, fluorescence polarization, HTS (AID 602252);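 further: 0% = DMSO neutral control and 100% = excess unlabeled competitor peptide PRC23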
- reported conditions: purified CAL PDZ, TMR-peptide fluorescence polarization, 1 h; at 24.9 µM; stronger effect = higher value
About 2,700 (0.9%) of roughly 300,000 compounds were called active. The list comes from a sample in which actives are over-represented; it also holds close analogues and randomly drawn compounds.
reported endpoint: inhibition (%)
One number for each entry, in %.

Oc1ccc(-c2[nH]ncc2-c2nc3ccccc3s2)c(O)c1 ... -4.79
Cc1cc(O)ccc1-c1cnc2ccccc2n1 ... -0.904
Cn1c(CCN2CCCC2)nc2cc(NS(=O)(=O)c3ccccc3)ccc21 ... -2.75
Cn1c(CCN2CCCCCC2)nc2cc(NC(=O)Nc3ccccc3)ccc21 ... 49.1
CCCCn1c(N)c(N(CCOC)C(=O)c2cccc(S(=O)(=O)N3CCCCC3)c2)c(=O)[nH]c1=O ... -4.58

Respectfully, I request inhibition for each entry included below.
1. O=C(O)CN1CCN(C(c2ccccc2)c2ccccc2)CC1
2. Cc1noc(NS(=O)(=O)c2ccc(NC(=O)C34CCC(CC3)C4)cc2)c1C
3. Oc1ccc(-c2nc3ccccc3nc2-c2ccc(O)cc2O)c(O)c1
4. CCC(=O)Nc1ccc2c(c1)nc(CCN1CCN(c3ccccn3)CC1)n2C
5. O=c1[nH]c2ccc(S(=O)(=O)N3CCCC3)cc2[nH]1
6. CC1(C)CC(N2CCN(C(c3ccccc3)c3ccccc3)CC2)=CC(=[N+]2CCCCC2)C1

Resp:
1. 0.69
2. -5.91
3. 89
4. -15.1
5. -3.37
6. 46.7

###

- assayed target: Golgi-associated PDZ and coiled-coil motif-containing protein (Homo sapiens)
- protocol summary: untagged CAL PDZ binding inhibitors, primary screen, biochemical, fluorescence polarization, HTS (AID 602252);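 further: 0% = DMSO neutral control and 100% = excess unlabeled competitor peptide PRC23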
- reported conditions: purified CAL PDZ, TMR-peptide fluorescence polarization, 1 h; at 24.9 µM; stronger effect = higher value
In all, about 300,000 compounds went through this assay and about 2,700 (0.9%) were called active. This excerpt belongs to a sample that is enriched for actives.
reported endpoint: inhibition (%)
One number for each entry, in %.

Reference set (6 entries):
O=C(O)c1ccc(/C=N/NC(=S)NCc2ccccc2)cc1 ... -1.3
CCCNC(=O)CCc1c(C)nc2c(c(C)nn2-c2ccccc2)c1C ... -0.965
O=C(N/N=C/c1ccc(OC(=O)c2ccccc2Cl)cc1)c1ccc(O)cc1 ... -4.63
CCC1([N+](=O)[O-])COC(c2ccc(C(C)C)cc2)OC1 (stereo unspecified) ... 2.08
Cc1ccc(S(=O)(=O)N2CCN(C(=O)Cn3c(=O)cnc4ccccc43)CC2)c(C)c1 ... -10.5
O=C(N[C@H]1C/C=C\C(c2cccc(F)c2)N(Cc2ccccc2)C(=O)C1)OCC1c2ccccc2-c2ccccc21 (stereo partly specified) ... -1.43

Respectfully, I request inhibition for each entry included below.
1. O=C(Cc1ccc(S(=O)(=O)N2CCOCC2)s1)Nc1ccc(Br)c(C(F)(F)F)c1
2. c1ccc(-c2c[nH]c(-c3ccccc3)c2)cc1
3. COC(=O)c1ccc(NC(=S)Nc2cccc(C)n2)cc1
4. O=[N+]([O-])c1cccc(C=NN=Cc2ccccc2O)c1
5. CC(Oc1ccc2c(-c3ccccc3)cc(=O)oc2c1)C(=O)NC(Cc1c[nH]c2ccccc12)C(=O)O (stereo unspecified)

Resp:
-2.21
-3.72
52.8
6.22
1.66

Respectfully, I request inhibition for each entry included below.
1. C=CCNC(=S)N/N=C/c1ccc(OCc2ccccc2)cc1
2. O=C(CSC(=S)N1CCOCC1)c1ccccc1
3. O=C(CSC(=S)N1CCCCC1)c1c(F)cccc1F
4. CC(C)OC(=O)c1ccc(NCc2cc(O)ccc2O)cc1Cl

Resp:
1. 51.2
2. 0.137
3. 79.2
4. 0.191

Req: Which inhibition is reported for this compound? CSc1ccc(-c2c(C#N)c(N)nc3c2c(C)nn3-c2ccccc2)cc1
Resp: -0.521
